target: JAK2 (Homo sapiens, UniProt O60674); test: Lance Ultra Kinase Assay, recombinant JAK2; conditions: 5 mM ATP
Sequence (O60674 whole entry): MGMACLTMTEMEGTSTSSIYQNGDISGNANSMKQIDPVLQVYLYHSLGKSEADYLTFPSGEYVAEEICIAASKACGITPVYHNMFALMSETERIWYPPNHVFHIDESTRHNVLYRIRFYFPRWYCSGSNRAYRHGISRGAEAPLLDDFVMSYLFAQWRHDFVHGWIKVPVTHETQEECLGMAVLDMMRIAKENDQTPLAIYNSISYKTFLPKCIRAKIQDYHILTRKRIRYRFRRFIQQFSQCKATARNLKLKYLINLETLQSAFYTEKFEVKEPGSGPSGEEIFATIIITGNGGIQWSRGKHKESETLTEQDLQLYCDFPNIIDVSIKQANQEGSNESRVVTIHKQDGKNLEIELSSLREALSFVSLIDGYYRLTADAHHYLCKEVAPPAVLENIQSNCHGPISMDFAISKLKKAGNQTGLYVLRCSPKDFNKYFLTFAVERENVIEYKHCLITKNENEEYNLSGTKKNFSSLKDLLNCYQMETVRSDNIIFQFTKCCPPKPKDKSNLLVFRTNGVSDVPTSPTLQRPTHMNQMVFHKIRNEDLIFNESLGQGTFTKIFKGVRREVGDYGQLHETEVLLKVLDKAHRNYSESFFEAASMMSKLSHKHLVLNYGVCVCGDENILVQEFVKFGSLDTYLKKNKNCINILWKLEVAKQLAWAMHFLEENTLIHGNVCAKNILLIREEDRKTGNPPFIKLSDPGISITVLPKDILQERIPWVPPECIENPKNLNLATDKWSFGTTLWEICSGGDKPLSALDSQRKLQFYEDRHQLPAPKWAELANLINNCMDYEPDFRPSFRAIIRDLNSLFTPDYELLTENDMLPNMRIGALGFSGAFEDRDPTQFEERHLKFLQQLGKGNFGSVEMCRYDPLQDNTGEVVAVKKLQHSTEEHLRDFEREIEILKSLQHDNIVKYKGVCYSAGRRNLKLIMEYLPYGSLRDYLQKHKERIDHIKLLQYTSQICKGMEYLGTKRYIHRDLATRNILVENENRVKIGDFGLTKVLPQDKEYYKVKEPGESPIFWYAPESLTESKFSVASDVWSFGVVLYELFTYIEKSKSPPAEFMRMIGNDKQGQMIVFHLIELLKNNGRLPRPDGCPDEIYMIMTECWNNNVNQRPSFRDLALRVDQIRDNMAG
reportedMetric: pIC50
Interpret pIC50 as the negative base-10 log of the concentration measured in mol/L.

Example entries begin here.
chemicalStructure | testSystem | pIC50
COC[C@H](C(=O)Nc1cccc2c(-c3nc(Nc4ccc(NC(=O)CO)nc4)ncc3F)c[nH]c12)N1CCN(C)CC1 | JAK2 (Homo sapiens, UniProt O60674) | 6.74
COC[C@H](C(=O)Nc1cccc2c(-c3nc(Nc4ccc5ncsc5c4)ncc3F)c[nH]c12)N1CCN(C)CC1 | JAK2 (Homo sapiens, UniProt O60674) | 7.09
COC[C@H](C(=O)Nc1cccc2c(-c3nc(Nc4cnn(C5CCOCC5)c4)ncc3F)c[nH]c12)N1CCN(C)CC1 | JAK2 (Homo sapiens, UniProt O60674) | 7.66

Record COC[C@H](C(=O)Nc1cccc2c(-c3nc(Nc4ccc(CO)cn4)ncc3F)c[nH]c12)N1CCN(C)CC1 ; system JAK2 (Homo sapiens, UniProt O60674); pIC50 = 5.65

The molecule COC[C@H](C(=O)Nc1cccc2c(-c3nc(Nc4cnc(CO)c(C)c4)ncc3F)c[nH]c12)N1CCN(C)CC1 , when measured on JAK2 (Homo sapiens, UniProt O60674), yielded pIC50 of 8.40

Record COC[C@H](C(=O)Nc1cccc2c(-c3nc(Nc4cnc(CCO)c(OC)c4)ncc3F)c[nH]c12)N1CCN(C)CC1 ; system JAK2 (Homo sapiens, UniProt O60674); pIC50 = 7.92

Measured pIC50 for this entry COC[C@H](C(=O)Nc1cccc2c(-c3nc(Nc4ccc(NC(=O)OC)nc4)ncc3F)c[nH]c12)N1CCN(C)CC1 on JAK2 (Homo sapiens, UniProt O60674): 6.44
